These entries and their values trace back to patent US12240841B2.

Target: FXR receptor (Homo sapiens, UniProt Q96RI1)
Construct: expressed in transfected cells; host or cells: 293T cells
Sequence (Q96RI1 1-486): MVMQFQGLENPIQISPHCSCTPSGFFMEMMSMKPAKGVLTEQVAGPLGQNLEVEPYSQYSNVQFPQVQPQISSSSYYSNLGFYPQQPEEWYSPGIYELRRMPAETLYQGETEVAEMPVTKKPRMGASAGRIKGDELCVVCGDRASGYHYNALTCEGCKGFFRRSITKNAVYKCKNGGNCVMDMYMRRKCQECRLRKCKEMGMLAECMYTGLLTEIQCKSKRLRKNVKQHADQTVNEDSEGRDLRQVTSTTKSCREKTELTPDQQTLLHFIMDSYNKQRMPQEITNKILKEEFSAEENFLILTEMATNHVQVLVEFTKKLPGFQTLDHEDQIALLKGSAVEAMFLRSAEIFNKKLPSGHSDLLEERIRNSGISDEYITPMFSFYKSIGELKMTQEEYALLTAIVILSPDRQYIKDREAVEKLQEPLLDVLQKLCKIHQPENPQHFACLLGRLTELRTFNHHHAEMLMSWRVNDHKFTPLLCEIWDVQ
Assay: FXR activity at the cell level (FXRE luciferase reporter in 293T cells)
Format: cell-based
Conditions: 10 μM, 293T cells, luciferase reporter, relative to OCA
Item-by-item account of Activity relative to OCA (%) 10 μM

[
  {
    "COMPOUND": "Cc1ccccc1-c1noc(C2CC2)c1COC1CC2CCC(C1)N2c1ccc(-c2noc(=O)[nH]2)c(F)c1 (stereo not drawn)",
    "Activity relative to OCA (%) 10 μM": 106
  },
  {
    "COMPOUND": "O=c1[nH]c(-c2ccc(N3CCC(OCc4c(-c5ccccc5C(F)(F)F)noc4C4CC4)CC3)cc2)no1",
    "Activity relative to OCA (%) 10 μM": 88
  },
  {
    "COMPOUND": "CC(C)c1onc(-c2c(Cl)cccc2Cl)c1COC1CCN(c2ccc(-c3noc(=O)[nH]3)cc2)CC1",
    "Activity relative to OCA (%) 10 μM": 164
  },
  {
    "COMPOUND": "O=c1[nH]c(-c2ccc(N3C4CCC3CC(OCc3c(-c5ccccc5OC(F)F)noc3C3CC3)C4)cc2F)no1 (stereo not drawn)",
    "Activity relative to OCA (%) 10 μM": 108
  },
  {
    "COMPOUND": "O=c1[nH]c(-c2cccc(N3CCCC(OCc4c(-c5c(Cl)cccc5Cl)noc4C4CC4)CC3)c2)no1 (stereo not drawn)",
    "Activity relative to OCA (%) 10 μM": 87
  },
  {
    "COMPOUND": "O=c1[nH]c(-c2ccc(N3C4CCC3CC(OCc3c(-c5c(F)cccc5F)noc3C3CC3)C4)cc2F)no1 (stereo not drawn)",
    "Activity relative to OCA (%) 10 μM": 117
  },
  {
    "COMPOUND": "S=c1[nH]c(-c2ccc(N3CCC(OCc4c(-c5c(Cl)cccc5Cl)noc4C4CC4)CC3)cc2)no1",
    "Activity relative to OCA (%) 10 μM": 146
  },
  {
    "COMPOUND": "O=c1[nH]c(-c2ccc(N3CCC(OCc4c(-c5ccccc5OC(F)(F)F)noc4C4CC4)CC3)cn2)no1",
    "Activity relative to OCA (%) 10 μM": 106
  },
  {
    "COMPOUND": "O=c1[nH]c(-c2ccc(N3C4CCC3CC(OCc3c(-c5ccccc5OC(F)(F)F)noc3C3CC3)C4)cc2F)no1 (stereo not drawn)",
    "Activity relative to OCA (%) 10 μM": 102
  }
]
